target: PP2A (Homo sapiens); construct: purified PP2A (EMD Millipore Corporation, Darmstadt, Germany, cat. #14-111; human red blood cells); purchased EMD Millipore Corporation 14-111; host or cells: human red blood cells (tissue-purified); experiment: biochemical; format: biochemical
Sequence (P30153 2-589): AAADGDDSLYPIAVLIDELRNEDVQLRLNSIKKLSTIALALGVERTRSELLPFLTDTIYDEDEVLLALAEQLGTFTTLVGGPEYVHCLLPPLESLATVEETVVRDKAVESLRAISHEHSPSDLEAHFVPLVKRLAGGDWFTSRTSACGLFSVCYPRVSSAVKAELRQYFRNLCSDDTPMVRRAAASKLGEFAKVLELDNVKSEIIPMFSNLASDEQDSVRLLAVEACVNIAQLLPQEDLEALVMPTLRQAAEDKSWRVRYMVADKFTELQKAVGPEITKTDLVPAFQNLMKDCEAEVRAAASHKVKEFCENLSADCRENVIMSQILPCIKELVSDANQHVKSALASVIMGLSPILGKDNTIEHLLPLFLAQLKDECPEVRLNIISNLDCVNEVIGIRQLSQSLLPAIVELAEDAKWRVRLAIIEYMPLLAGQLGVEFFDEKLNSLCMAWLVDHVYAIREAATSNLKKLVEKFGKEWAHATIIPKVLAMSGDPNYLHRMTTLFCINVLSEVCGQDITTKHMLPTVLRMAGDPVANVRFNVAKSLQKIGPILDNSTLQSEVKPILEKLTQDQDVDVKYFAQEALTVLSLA
Sequence (P67775 whole entry): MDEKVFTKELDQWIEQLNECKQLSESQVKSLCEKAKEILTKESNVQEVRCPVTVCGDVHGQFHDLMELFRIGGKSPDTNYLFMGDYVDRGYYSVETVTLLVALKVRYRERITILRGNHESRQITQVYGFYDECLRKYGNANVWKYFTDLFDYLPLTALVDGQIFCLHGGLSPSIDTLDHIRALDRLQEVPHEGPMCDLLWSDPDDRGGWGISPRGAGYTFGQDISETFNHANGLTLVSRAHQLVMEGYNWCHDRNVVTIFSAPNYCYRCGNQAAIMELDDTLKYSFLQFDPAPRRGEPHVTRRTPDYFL
RECORDED_METRIC: IC50 (µM)
Write the number in µM without appending the unit.

MOLECULE | IC50 / µM
C=C1C(O)C2OC3(CCC(C=CC(C)C4CC(C)=CC5(OC(CC(C)(O)C(=O)O)CCC5O)O4)O3)CCC2OC1C(O)CC(C)C1CCCC2(OCCCC2C)O1 (stereo not drawn) [syn. DTX2, Dinophysistoxin-2] | 0.00135

Consider the record given below.
Task: Consider the molecule C=C1C(O)C2OC3(CCC(C=CC(C)C4CC(C)=CC5(OC(CC(C)(O)C(=O)O)CCC5O)O4)O3)CCC2OC1C(O)CC(C)C1CCCC2(OCCCC2C)O1 (stereo not drawn) [syn. 2-epi-DTX2, 2-epi-dinophysistoxin-2] and give its measured IC50.
Output: 0.137

// data source = paper PMC5128750
